// provenance: patent US20240360289A1

- Procedure text: Maximum carbon dioxide release temperature of amine compound (DSC after CO2 absorption)
- Format: physicochemical
- Condition description: amine compound after 24 hours in air at 23° C. and 50% RH; DSC 23 to 250° C., 10° C./minute, nitrogen
Assign class by Maximum carbon dioxide release temperature: not lower than 100 °C means class 1; lower than 100 °C means class 0.

Use these answered entries as a reference point.
NCc1cccc(CN)c1 [MXDA, metaxylylenediamine] : class 1
NCC1CCCC(CN)C1 (centres unmarked) [1,3-BAC, 1,3-bis(aminomethyl)cyclohexane] : class 1
NCCN1CCNCC1 [AEP, N-(2-aminoethyl) piperazine] : class 0
CC1(C)CC(N)CC(C)(CN)C1 (centres unmarked) [IPDA, isophoronediamine] : class 1

Textbook exercise: given the entry NC1CCC(CC2CCC(N)CC2)CC1 (centres unmarked) [PACM, 4,4′-methylenebis(cyclohexylamine), reference compound] , state whether its Maximum carbon dioxide release temperature is greater than or equal to 100 °C.
class 0
